- Measurement target: α-glucosidase
- Procedure summary: colorimetric α-glucosidase inhibitory assay
- Setup conditions: substrate p-nitrophenyl α-D-glucoside, 37 °C
Observation type: pIC50
Give bare numbers, as −log10 of the molar value.

O=C1C=CC(=CC=Cc2ccccc2)O1
5.90

Data request: Return reported pIC50; argument: COc1cccc2c1cc1c3c(cc4c(c32)OC2Oc3c(cc5c6c(cc7ccccc7c36)NC5=O)OC2O4)C(=O)N1 (centres unmarked)
Data returned: 3.86

====

- Test system: α-glucosidase
- Procedure summary: colorimetric α-glucosidase inhibitory assay
- Type: biochemical
- Setup conditions: sample at 250 µg/mL
Field: %Inhibition at 250 µg/mL. Provide a value for each of the molecules that follow.

Study these solved cases before continuing.
Cn1cc(C(=O)O)c2c1C(=O)c1ccccc1C2=O
99.5%
O=C1C=CC(=CC=Cc2ccccc2)O1
98.6%

Record %Inhibition at 250 µg/mL for all entries; do not skip any.
1. C[C@H]1O[C@H](O[C@H]2[C@H](O)[C@@H](O)[C@@H](O[C@H]3[C@H](O)[C@@H](O)C(O)O[C@@H]3CO)O[C@@H]2CO)[C@H](O)[C@@H](O)[C@@H]1N[C@H]1C=C(CO)[C@@H](O)[C@H](O)[C@H]1O (stereo partly shown) [Acarbose, reference compound]
2. O=C1C=C[C@@H](O)[C@@H](/C=C/c2ccccc2)O1 [Compound 9, (−)-5-hydroxygoniothalamin]

Data returned:
["88.1%", "99.8%"]

Record %Inhibition at 250 µg/mL for all entries; do not skip any.
1. Cn1cc(CO)c2c1C(=O)c1ccccc1C2=O
2. C[C@@H]1C2=C(NC(=O)[C@@H]1O)C(=O)c1ccccc1C2=O
3. COc1cccc2c1cc1c3c(cc4c(c32)OC2Oc3c(cc5c6c(cc7ccccc7c36)NC5=O)OC2O4)C(=O)N1 (stereo not shown)

Data returned:
99.3%
98.0%
99.6%
